Type: cell-based
Assay Conditions: Cell viability (%)
Bridge positions count the residues as written; N and C are the ends. Square brackets hold non-standard residues; d marks the D form. Peptide text beside a SMILES is read from it.
Measured Attribute: viability at 25 µM (%)

{"columns": ["Compound", "Measured Attribute", "Measurement Units", "Reported"],
 "data": [
  ["CC[C@H](C)[C@H](NC(=O)[C@H](CCCNC(=N)N)NC(=O)[C@H]1CCC(=O)NCCCC[C@H](NC(=O)[C@H](Cc2ccccc2)NC(=O)[C@H](Cc2c[nH]c3ccccc23)NC(=O)[C@@H]2CCCN2C(=O)[C@@H](NC(=O)[C@@H](N)Cc2ccccc2)C(C)C)C(=O)N[C@@H](CCCCN)C(=O)N[C@@H](Cc2ccccc2)C(=O)N[C@H](CC(C)C)C(=O)N1)C(=O)N[C@@H](CC(C)C)C(N)=O [Peptide 2, FVPWF[KKFle]RIL] (H-FVPWFKKF[dL][dE]RIL-NH2; lactam 6-10)", "viability at 25 µM", "%", 91]
]}

====

Test system: P. aeruginosa ATCC 27853
Test Name: microbe, parasite or virus in culture
Format: cell-based
Assay Conditions: ATCC 27853
Bridge positions count the residues as written; N and C are the ends. Square brackets hold non-standard residues; d marks the D form. Peptide text beside a SMILES is read from it. * marks the point of attachment. Phe(4-guanidino) = N=C(N)Nc1ccc(C[C@H](N)C(=O)O)cc1; Butanoyl(4-guanidino) = N=C(N)NCCCC(=O)*
MIC listing for selected molecules.

{"columns": ["Molecule", "MIC (µM)"],
 "data": [
  ["CC[C@H](C)[C@H](NC(=O)[C@H](CCCNC(=N)N)NC(=O)[C@H]1CCC(=O)NCCCC[C@H](NC(=O)[C@H](Cc2ccccc2)NC(=O)[C@H](Cc2c[nH]c3ccccc23)NC(=O)[C@@H]2CCCN2C(=O)[C@@H](NC(=O)[C@@H](N)Cc2ccccc2)C(C)C)C(=O)N[C@@H](CCCCN)C(=O)N[C@@H](Cc2ccc(NC(=N)N)cc2)C(=O)N[C@H](CC(C)C)C(=O)N1)C(=O)N[C@@H](CC(C)C)C(N)=O [Peptide 10, FVPWF[KK(p-guanidino)Fle]RIL] (H-FVPWFKK[Phe(4-guanidino)][dL][dE]RIL-NH2; lactam 6-10)", 50],
  ["CC[C@H](C)[C@H](NC(=O)[C@H](CCCNC(=N)N)NC(=O)[C@H]1CCC(=O)NCCCC[C@H](NC(=O)[C@H](Cc2ccccc2)NC(=O)[C@H](Cc2c[nH]c3ccccc23)NC(=O)[C@@H]2CCCN2C(=O)[C@@H](NC(=O)[C@H](Cc2ccccc2)NC(=O)CCCNC(=N)N)C(C)C)C(=O)N[C@@H](CCCCN)C(=O)N[C@@H](Cc2ccccc2)C(=O)N[C@H](CC(C)C)C(=O)N1)C(=O)N[C@@H](CC(C)C)C(N)=O [Peptide 5, guanidino-GABA-FVPWF[KKFle]RIL] ({Butanoyl(4-guanidino)}-FVPWFKKF[dL][dE]RIL-NH2; lactam 6-10)", 50]
]}

====

Type: cell-based, human
Assay Conditions: Cell viability (%)
Bridge positions count the residues as written; N and C are the ends. Square brackets hold non-standard residues; d marks the D form. Peptide text beside a SMILES is read from it.

{"columns": ["Molecule", "Measurement Units", "viability at 25 µM"],
 "data": [
  ["CC[C@H](C)[C@H](NC(=O)[C@H](CCCNC(=N)N)NC(=O)[C@H]1CCC(=O)NCCCC[C@H](NC(=O)[C@H](Cc2ccccc2)NC(=O)[C@H](Cc2c[nH]c3ccccc23)NC(=O)[C@@H]2CCCN2C(=O)[C@@H](NC(=O)[C@@H](N)Cc2ccccc2)C(C)C)C(=O)N[C@@H](CCCCN)C(=O)N[C@@H](Cc2ccccc2)C(=O)N[C@H](CC(C)C)C(=O)N1)C(=O)N[C@@H](CC(C)C)C(N)=O [Peptide 2, FVPWF[KKFle]RIL] (H-FVPWFKKF[dL][dE]RIL-NH2; lactam 6-10)", "%", 95]
]}

====

System: human keratinocytes (HaCaT cells)
Format: cell-based
Assay Conditions: human, 24 h
Bridge positions count the residues as written; N and C are the ends. Square brackets hold non-standard residues; d marks the D form. Peptide text beside a SMILES is read from it. Phe(4-guanidino) = N=C(N)Nc1ccc(C[C@H](N)C(=O)O)cc1
CC50 listing for selected compounds.

{"columns": ["Compound", "Target", "CC50"],
 "data": [
  ["CC[C@H](C)[C@H](NC(=O)[C@H](CCCNC(=N)N)NC(=O)[C@H]1CCC(=O)NCCCC[C@H](NC(=O)[C@H](Cc2ccccc2)NC(=O)[C@H](Cc2c[nH]c3ccccc23)NC(=O)[C@@H]2CCCN2C(=O)[C@@H](NC(=O)[C@@H](N)Cc2ccccc2)C(C)C)C(=O)N[C@@H](CCCNC(=N)N)C(=O)N[C@@H](Cc2ccccc2)C(=O)N[C@H](CC(C)C)C(=O)N1)C(=O)N[C@@H](CC(C)C)C(N)=O [Peptide 9, FVPWF[KRFle]RIL] (H-FVPWFKRF[dL][dE]RIL-NH2; lactam 6-10)", "human keratinocytes (HaCaT cells)", "54.3 µM"],
  ["CC[C@H](C)[C@H](NC(=O)[C@H](CCCNC(=N)N)NC(=O)[C@H]1CCC(=O)NCCCC[C@H](NC(=O)[C@H](Cc2ccccc2)NC(=O)[C@H](Cc2c[nH]c3ccccc23)NC(=O)[C@@H]2CCCN2C(=O)[C@@H](NC(=O)[C@@H](N)Cc2ccc(NC(=N)N)cc2)C(C)C)C(=O)N[C@@H](CCCCN)C(=O)N[C@@H](Cc2ccccc2)C(=O)N[C@H](CC(C)C)C(=O)N1)C(=O)N[C@@H](CC(C)C)C(N)=O [Peptide 6, (p-guanidino)FVPWF[KKFle]RIL] (H-[Phe(4-guanidino)]VPWFKKF[dL][dE]RIL-NH2; lactam 6-10)", "human keratinocytes (HaCaT cells)", "59.6 µM"]
]}

====

Format: cell-based, human
Assay Conditions: human, Cell viability (%)
Bridge positions count the residues as written; N and C are the ends. Square brackets hold non-standard residues; d marks the D form. Peptide text beside a SMILES is read from it. * marks the point of attachment. Pro(cis-4-guanidino) = NC(N)=N[C@@H]1CN[C@H](C(=O)O)C1; Phe(4-guanidino) = N=C(N)Nc1ccc(C[C@H](N)C(=O)O)cc1; X1 = N=C(N)N[C@@H](Cc1ccccc1)C(=O)*
viability at 2 h, 12.5 µM listing for selected compounds.

{"columns": ["Compound", "viability at 2 h, 12.5 µM (%)"],
 "data": [
  ["CC[C@H](C)[C@H](NC(=O)[C@H](CCCNC(=N)N)NC(=O)[C@H]1CCC(=O)NCCCC[C@H](NC(=O)[C@H](Cc2ccccc2)NC(=O)[C@H](Cc2c[nH]c3ccccc23)NC(=O)[C@@H]2CCCN2C(=O)[C@@H](NC(=O)[C@@H](N)Cc2ccc(NC(=N)N)cc2)C(C)C)C(=O)N[C@@H](CCCCN)C(=O)N[C@@H](Cc2ccccc2)C(=O)N[C@H](CC(C)C)C(=O)N1)C(=O)N[C@@H](CC(C)C)C(N)=O [Peptide 6, (p-guanidino)FVPWF[KKFle]RIL] (H-[Phe(4-guanidino)]VPWFKKF[dL][dE]RIL-NH2; lactam 6-10)", 101],
  ["CC[C@H](C)[C@H](NC(=O)[C@H](CCCNC(=N)N)NC(=O)[C@H]1CCC(=O)NCCCC[C@H](NC(=O)[C@H](Cc2ccccc2)NC(=O)[C@H](Cc2c[nH]c3ccccc23)NC(=O)[C@@H]2CCCN2C(=O)[C@@H](NC(=O)[C@H](Cc2ccccc2)NC(=N)N)C(C)C)C(=O)N[C@@H](CCCCN)C(=O)N[C@@H](Cc2ccccc2)C(=O)N[C@H](CC(C)C)C(=O)N1)C(=O)N[C@@H](CC(C)C)C(N)=O [Peptide 3, guanidino-FVPWF[KKFle]RIL] (X1-VPWFKKF[dL][dE]RIL-NH2; lactam 5-9)", 125],
  ["CC[C@H](C)[C@H](NC(=O)[C@H](CCCNC(=N)N)NC(=O)[C@H]1CCC(=O)NCCCC[C@H](NC(=O)[C@H](Cc2ccccc2)NC(=O)[C@H](Cc2c[nH]c3ccccc23)NC(=O)[C@@H]2C[C@H](NC(=N)N)CN2C(=O)[C@@H](NC(=O)[C@@H](N)Cc2ccccc2)C(C)C)C(=O)N[C@@H](CCCCN)C(=O)N[C@@H](Cc2ccccc2)C(=O)N[C@H](CC(C)C)C(=O)N1)C(=O)N[C@@H](CC(C)C)C(N)=O [Peptide 7, FV(4-guanidino)PWF[KKFle]RIL] (H-FV[Pro(cis-4-guanidino)]WFKKF[dL][dE]RIL-NH2; lactam 6-10)", 102],
  ["CC[C@H](C)[C@H](NC(=O)[C@H](CCCNC(=N)N)NC(=O)[C@@H]1CCCCNC(=N)NCCCC[C@H](NC(=O)[C@H](Cc2ccccc2)NC(=O)[C@H](Cc2c[nH]c3ccccc23)NC(=O)[C@@H]2CCCN2C(=O)[C@@H](NC(=O)[C@@H](N)Cc2ccccc2)C(C)C)C(=O)N[C@@H](CCCCN)C(=O)N[C@@H](Cc2ccccc2)C(=O)N[C@H](CC(C)C)C(=O)N1)C(=O)N[C@@H](CC(C)C)C(N)=O [Peptide 11, FVPWF{KKFlK}RIL]", 86],
  ["CC[C@H](C)[C@H](NC(=O)[C@H](CCCNC(=N)N)NC(=O)[C@H]1CCC(=O)NCCCC[C@H](NC(=O)[C@H](Cc2ccccc2)NC(=O)[C@H](Cc2c[nH]c3ccccc23)NC(=O)[C@@H]2CCCN2C(=O)[C@@H](NC(=O)[C@@H](N)Cc2ccccc2)C(C)C)C(=O)N[C@@H](CCCCN)C(=O)N[C@@H](Cc2ccc(NC(=N)N)cc2)C(=O)N[C@H](CC(C)C)C(=O)N1)C(=O)N[C@@H](CC(C)C)C(N)=O [Peptide 10, FVPWF[KK(p-guanidino)Fle]RIL] (H-FVPWFKK[Phe(4-guanidino)][dL][dE]RIL-NH2; lactam 6-10)", 112]
]}
